Collected MTT TD50 values appear next to each entry.
- Test system: HEp-2 cells
- ASSAY_TEXT: Cytotoxicity (MTT) assay
- Assay type: cell-based
- MEASUREMENT_PARAMETERS: Table 2; uninfected HEp-2 cells, 4 days incubation, 50% toxicity dose

{"columns": ["MOLECULE", "MTT TD50 / µM"],
 "data": [
  ["Cc1cc(NC2CCCCCC2)nc(NCc2ccccn2)n1 [Example 3]", 8.04],
  ["Cc1nc(NCc2ccccn2)nc(NC2CCCCC2)c1C [Example 1]", 23.00],
  ["Cc1cc(NC2CCCCC2)nc(NCc2ccccn2)n1 [Example 4]", 39.00],
  ["Cc1ccccc1CNc1nc(NCc2ccccn2)nc2c1CCC2 [Example 2]", 7.17]
]}
